Provide the recorded pKd for the entries that follow.
- tested.system: T1, human SIRPα1 extracellular domain 1-370, Avi-FXa-Fc tag (human, biotinylated)
- T1 construct: also called huSIRPα1; v2
- T1 sequence (chain, as listed by the source limits assumed): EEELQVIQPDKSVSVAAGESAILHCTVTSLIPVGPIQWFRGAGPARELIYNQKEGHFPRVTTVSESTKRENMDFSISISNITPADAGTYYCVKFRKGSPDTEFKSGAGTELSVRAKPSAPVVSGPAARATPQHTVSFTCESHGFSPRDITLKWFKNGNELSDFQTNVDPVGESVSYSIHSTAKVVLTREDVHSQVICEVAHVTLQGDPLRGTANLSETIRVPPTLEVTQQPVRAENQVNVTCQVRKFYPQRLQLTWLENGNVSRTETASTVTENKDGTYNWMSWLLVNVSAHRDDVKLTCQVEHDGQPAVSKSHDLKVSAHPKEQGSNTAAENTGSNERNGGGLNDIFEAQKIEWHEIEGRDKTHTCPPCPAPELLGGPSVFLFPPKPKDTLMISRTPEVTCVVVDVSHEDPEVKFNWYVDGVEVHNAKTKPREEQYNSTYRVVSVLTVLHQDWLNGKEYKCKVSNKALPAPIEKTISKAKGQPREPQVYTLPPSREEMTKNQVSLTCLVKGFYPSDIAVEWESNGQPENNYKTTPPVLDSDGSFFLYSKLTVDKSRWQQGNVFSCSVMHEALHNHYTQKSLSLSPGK
- assay.text: SPR, captured biotinylated antigen
One number for each entry, as −log10 of the molar value.

humanized anti-SIRPα antibody 11 (antibody, human IgG1, kappa, L234A L235A, V domains shown, human IgG1 LALA, kappa; also called mAb 11) VH: RQLVESGGGLVQPGGSLRLSCAASGFSLSSHGISWVRQAPGKGLEWVGTIGTGVITYYASWAKGRFTGSKTSSTAYLQMTSLRAEDTAVYYCARGSAWNDPFDYWGQGTLVTVSS VL: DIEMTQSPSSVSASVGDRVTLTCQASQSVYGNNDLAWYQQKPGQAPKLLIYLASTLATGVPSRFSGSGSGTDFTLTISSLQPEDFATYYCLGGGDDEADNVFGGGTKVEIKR	10.46

Qu. Which value of pKd has been reported for humanized anti-SIRPα antibody 7 (antibody, human IgG1, kappa, L234A L235A, V domains shown, human IgG1 LALA, kappa; also called mAb 7) VH: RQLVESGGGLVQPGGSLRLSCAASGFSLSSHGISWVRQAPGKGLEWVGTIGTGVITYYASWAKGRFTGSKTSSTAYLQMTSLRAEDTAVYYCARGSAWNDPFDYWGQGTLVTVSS VL: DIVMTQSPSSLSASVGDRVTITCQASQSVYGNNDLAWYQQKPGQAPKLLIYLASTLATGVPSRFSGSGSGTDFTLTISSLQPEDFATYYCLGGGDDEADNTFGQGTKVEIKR in the records?
Ans. 10.77
